- SUBJECT_OF_TEST: SMARCA4 (Homo sapiens, UniProt P51532)
- Construct: endogenous in cells; host or cells: RKO cells (CRL-2577, ATCC)
- Sequence (P51532 whole entry): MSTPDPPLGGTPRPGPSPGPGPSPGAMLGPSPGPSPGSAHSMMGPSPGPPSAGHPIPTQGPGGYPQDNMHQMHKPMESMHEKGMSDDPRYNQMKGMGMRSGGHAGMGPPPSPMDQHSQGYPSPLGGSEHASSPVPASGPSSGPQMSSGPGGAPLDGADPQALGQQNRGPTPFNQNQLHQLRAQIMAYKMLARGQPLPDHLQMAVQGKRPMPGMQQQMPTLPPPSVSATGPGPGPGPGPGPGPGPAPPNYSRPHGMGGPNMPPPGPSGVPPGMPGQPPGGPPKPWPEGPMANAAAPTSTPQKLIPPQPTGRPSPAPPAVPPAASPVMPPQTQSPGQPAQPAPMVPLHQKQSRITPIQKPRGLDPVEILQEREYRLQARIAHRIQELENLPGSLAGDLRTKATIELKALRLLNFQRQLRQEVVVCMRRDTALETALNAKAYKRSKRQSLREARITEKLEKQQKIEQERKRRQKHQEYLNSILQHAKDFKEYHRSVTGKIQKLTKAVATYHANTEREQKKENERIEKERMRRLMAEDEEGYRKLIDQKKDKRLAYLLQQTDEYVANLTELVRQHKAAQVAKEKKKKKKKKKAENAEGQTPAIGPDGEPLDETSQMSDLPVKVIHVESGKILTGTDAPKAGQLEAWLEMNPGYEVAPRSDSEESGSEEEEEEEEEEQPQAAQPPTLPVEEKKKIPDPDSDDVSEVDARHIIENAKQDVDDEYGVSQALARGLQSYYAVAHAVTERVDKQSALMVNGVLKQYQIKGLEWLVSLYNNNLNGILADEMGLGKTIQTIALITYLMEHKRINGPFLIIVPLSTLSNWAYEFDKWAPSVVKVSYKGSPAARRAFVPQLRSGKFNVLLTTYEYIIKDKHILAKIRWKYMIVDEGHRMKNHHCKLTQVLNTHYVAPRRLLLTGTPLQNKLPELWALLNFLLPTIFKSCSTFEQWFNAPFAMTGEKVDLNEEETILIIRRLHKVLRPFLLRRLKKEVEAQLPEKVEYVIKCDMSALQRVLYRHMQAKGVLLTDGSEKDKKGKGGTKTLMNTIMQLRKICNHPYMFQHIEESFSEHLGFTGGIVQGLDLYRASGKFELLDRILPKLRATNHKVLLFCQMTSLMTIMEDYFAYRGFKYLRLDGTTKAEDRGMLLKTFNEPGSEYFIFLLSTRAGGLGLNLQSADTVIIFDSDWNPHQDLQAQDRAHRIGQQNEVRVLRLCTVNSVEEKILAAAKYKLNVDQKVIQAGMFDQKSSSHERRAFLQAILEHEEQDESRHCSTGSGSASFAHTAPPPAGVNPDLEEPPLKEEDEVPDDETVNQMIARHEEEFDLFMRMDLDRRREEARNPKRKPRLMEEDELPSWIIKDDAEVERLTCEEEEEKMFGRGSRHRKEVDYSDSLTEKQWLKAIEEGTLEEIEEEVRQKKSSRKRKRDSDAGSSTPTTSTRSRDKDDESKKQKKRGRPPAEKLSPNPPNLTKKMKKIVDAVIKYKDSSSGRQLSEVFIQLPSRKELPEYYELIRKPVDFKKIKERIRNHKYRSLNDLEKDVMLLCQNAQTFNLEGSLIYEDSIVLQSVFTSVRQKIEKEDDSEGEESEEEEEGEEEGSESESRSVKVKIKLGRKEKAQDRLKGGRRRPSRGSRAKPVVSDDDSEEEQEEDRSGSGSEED
- EXPERIMENT_DESCRIPTION: SMARCA4 degradation analysis by imaging in RKO cells (DC50 A4)
- Assay type: cell-based
- SETUP_CONDITIONS: tables 69, 70, 73, 76-78
ASSAY_ENDPOINT: DC50 (µM)
Give a bare numeral; the unit µM is implied.

// worked examples, DC50 included
COMPOUND	DC50, µM
Cc1ncsc1-c1ccc([C@H](CCCN2CCC(c3cc4c(cc3OCCOCCO)n3c5cccc(Br)c5c(=O)nc3n4C3CCCC3)CC2)NC(=O)[C@@H]2C[C@@H](O)CN2C(=O)[C@@H](NC(=O)C2(F)CC2)C(C)(C)C)cc1 [Compound 42am]	0.025
CCOC(=O)c1ncsc1-c1ccc([C@H](CCCN2CCC(c3ccc4c(c3)n(C3CCCC3)c3nc(=O)c5c(Br)cccc5n43)CC2)NC(=O)[C@@H]2C[C@@H](O)CN2C(=O)[C@@H](NC(=O)C2(F)CC2)C(C)(C)C)cc1 [Compound 42w]	0.036
Cc1ncsc1-c1ccc([C@H](COCCN2CCC(c3ccc4c(c3)n(C3CCCC3)c3nc(=O)c5c(Br)cccc5n43)CC2)NC(=O)[C@@H]2C[C@@H](O)CN2C(=O)[C@@H](NC(=O)C2(C(F)(F)F)CC2)C(C)(C)C)cc1 [Compound 42bc]	0.133
CCn1c2cc(C3CCN(CCCCC[C@H](NC(=O)[C@@H]4C[C@@H](O)CN4C(=O)[C@@H](NC(=O)C4(F)CC4)C(C)(C)C)c4ccc(-c5scnc5C)cc4)CC3)ccc2n2c3cccc(Br)c3c(=O)nc12 [Compound 42ba]	0.022
Cc1ncsc1-c1ccc([C@H](COCCN2CCC(c3cc4c(cc3OC[C@@H]3CCCO3)n3c5cccc(Br)c5c(=O)nc3n4C3CCCC3)CC2)NC(=O)[C@@H]2C[C@@H](O)CN2C(=O)[C@@H](NC(=O)C2(F)CC2)C(C)(C)C)cc1 [Compound 42t]	0.067

# context switch: different compound, same DC50
Problem: // query DC50 value for entry Cc1ncsc1-c1ccc([C@H](CCCN2CCC(c3ccc4c(c3)n(C3CCCC3)c3nc(=O)c5c(Br)cccc5n43)CC2)NC(=O)[C@@H]2C[C@@H](O)CN2C(=O)[C@@H](NC(=O)C2(F)CC2)C(C)(C)C)cc1 [Compound 42q]
Result: 0.001

---

- SUBJECT_OF_TEST: SMARCA2 (Homo sapiens)
- Construct: endogenous in cells; host or cells: RKO cells (CRL-2577, ATCC)
- EXPERIMENT_DESCRIPTION: SMARCA2 degradation analysis by imaging in RKO cells (DC50 A2)
- Type: cell-based
- SETUP_CONDITIONS: tables 69, 70, 73, 76-78
- Protocol: Determination of SMARCA2 and SMARCA4 Degradation (DC50 A2 and A4 [nM]) Protein Degradation Assays for SMARCA2 and SMARCA4 For degradation analysis by imaging, 1250 RKO cells (CRL-2577, ATCC) per well were seeded into 60 μL DMEM (Sigma Aldrich) supplemented with 10% FBS (Hyclone) in 384-well flat bottom plates (CellCarrier Ultra, Perkin Elmer) and incubated at 37° C. and 5% CO2 in a humidified atmosphere overnight. […]
Item-by-item account of DC50
Give a bare numeral; the unit nM is implied.

MOLECULE	SUBJECT_OF_TEST	DC50 / nM
Cc1ncsc1-c1ccc([C@H](COC(C)(C)CN2CCCN(c3ccc4c(c3)n(C3CCCC3)c3nc(=O)c5c(Br)cccc5n43)CC2)NC(=O)[C@@H]2C[C@@H](O)CN2C(=O)[C@@H](NC(=O)C2(F)CC2)C(C)(C)C)cc1 [Compound 42i]	SMARCA2 (Homo sapiens)	9
Cc1ncsc1-c1ccc([C@H](CO[C@@H](CN2CCC(c3ccc4c(c3)n(C3CCCC3)c3nc(=O)c5c(Br)cccc5n43)CC2)C2CC2)NC(=O)[C@@H]2C[C@@H](O)CN2C(=O)[C@@H](NC(=O)C2(F)CC2)C(C)(C)C)cc1 [Compound 42v]	SMARCA2 (Homo sapiens)	11
Cc1ncsc1-c1ccc([C@H](CCCN2CCC(c3ccc4c(c3)n(C3CCCC3)c3nc(=O)c5c(Br)cccc5n43)CC2)NC(=O)[C@@H]2C[C@@H](O)CN2C(=O)[C@@H](NC(=O)C2(N(C)C)CC2)C(C)(C)C)cc1 [Compound 42ah]	SMARCA2 (Homo sapiens)	2

Problem: // query DC50 value for entry Cc1ncsc1-c1ccc([C@H](CCCN2CCC(c3ccc4c(c3)n(C3CCCC3)c3nc(=O)c5c(N)cccc5n43)CC2)NC(=O)[C@@H]2C[C@@H](O)CN2C(=O)[C@@H](NC(=O)C2(F)CC2)C(C)(C)C)cc1 [Compound 42x]
Result: 0.3

---

- SUBJECT_OF_TEST: SMARCA4 (Homo sapiens)
- Construct: endogenous in cells; host or cells: RKO cells (CRL-2577, ATCC)
- EXPERIMENT_DESCRIPTION: SMARCA4 degradation analysis by imaging in RKO cells (DC50 A4)
- Assay type: cell-based
- SETUP_CONDITIONS: tables 69, 70, 73, 76-78
Kindly apply the following: 1 (yes) if DC50 is less than 0.05 µM, 0 (no) in every other case.

Reference set, count: 4
COMPOUND	ASSIGNED_CATEGORY
CC(C)(C)[C@H](NC(=O)C1(F)CC1)C(=O)N1C[C@H](O)C[C@H]1C(=O)N[C@@H](CCCN1CCC(c2ccc3c(c2)n(C2CCCC2)c2nc(=O)c4c(Br)cccc4n32)CC1)c1ccc(-c2cncs2)cc1 [Compound 42ae]	1 (yes)
Cc1ncsc1-c1ccc([C@H](CCCCN2CCC(c3ccc4c(c3)n(C3CCCC3)c3nc(=O)c5c(Br)cccc5n43)CC2)NC(=O)[C@@H]2C[C@@H](O)CN2C(=O)[C@@H](NC(=O)C2(F)CC2)C(C)(C)C)cc1 [Compound 42ai]	1 (yes)
Cc1ncsc1-c1ccc([C@H](CO[C@H](C)CN2CCC(c3ccc4c(c3)n(C3CCCC3)c3nc(=O)c5c(Br)cccc5n43)CC2)NC(=O)[C@@H]2C[C@@H](O)CN2C(=O)[C@@H](NC(=O)C2(N(C)C)CC2)C(C)(C)C)cc1 [Compound 42y]	0 (no)
Cc1ncsc1-c1ccc([C@H](CCCCCN2CCN(c3ccc4c(c3)n(C3CCCC3)c3nc(=O)c5c(Br)cccc5n43)[C@@H](C)C2)NC(=O)[C@@H]2C[C@@H](O)CN2C(=O)[C@@H](NC(=O)C2(F)CC2)C(C)(C)C)cc1 [Compound 42ar]	1 (yes)

Problem: Report whether reported DC50 is lower than 0.05 µM (strictly) for COc1cc2c(cc1C1CCN(CCOC[C@H](NC(=O)[C@@H]3C[C@@H](O)CN3C(=O)[C@@H](NC(=O)C3(F)CC3)C(C)(C)C)c3ccc(-c4scnc4C)cc3)CC1)n(C1CCCC1)c1nc(=O)c3c(Br)cccc3n21 [Compound 42ay]
Result: 0 (no)

Problem: Report whether reported DC50 is lower than 0.05 µM (strictly) for Cc1ncsc1-c1ccc([C@H](CCCCCN2CCC(c3ccc4c(c3)n([C@H]3CC[C@@H](O)C3)c3nc(=O)c5c(Br)cccc5n43)CC2)NC(=O)[C@@H]2C[C@@H](O)CN2C(=O)[C@@H](NC(=O)C2(F)CC2)C(C)(C)C)cc1 [Compound 42f]
Result: 1 (yes)

Problem: Report whether reported DC50 is lower than 0.05 µM (strictly) for Cc1ncsc1-c1ccc([C@H](CO[C@H](C)CN2CCC(c3ccc4c(c3)n(C3C[C@H](C)[C@@H](C)C3)c3nc(=O)c5c(Br)cccc5n43)CC2)NC(=O)[C@@H]2C[C@@H](O)CN2C(=O)[C@@H](NC(=O)C2(F)CC2)C(C)(C)C)cc1 [Compound 42p]
Result: 0 (no)

Problem: Report whether reported DC50 is lower than 0.05 µM (strictly) for Cc1ncsc1-c1ccc([C@H](COCCN2CCC(c3cc4c(cc3OC3CCOC3)n3c5cccc(Br)c5c(=O)nc3n4C3CCCC3)CC2)NC(=O)[C@@H]2C[C@@H](O)CN2C(=O)[C@@H](NC(=O)C2(F)CC2)C(C)(C)C)cc1 (some centres unmarked) [Compound 42az]
Result: 0 (no)

---

- SUBJECT_OF_TEST: SMARCA2 (Homo sapiens, UniProt P51531)
- Construct: endogenous in cells; host or cells: RKO cells (CRL-2577, ATCC)
- Sequence (P51531 whole entry): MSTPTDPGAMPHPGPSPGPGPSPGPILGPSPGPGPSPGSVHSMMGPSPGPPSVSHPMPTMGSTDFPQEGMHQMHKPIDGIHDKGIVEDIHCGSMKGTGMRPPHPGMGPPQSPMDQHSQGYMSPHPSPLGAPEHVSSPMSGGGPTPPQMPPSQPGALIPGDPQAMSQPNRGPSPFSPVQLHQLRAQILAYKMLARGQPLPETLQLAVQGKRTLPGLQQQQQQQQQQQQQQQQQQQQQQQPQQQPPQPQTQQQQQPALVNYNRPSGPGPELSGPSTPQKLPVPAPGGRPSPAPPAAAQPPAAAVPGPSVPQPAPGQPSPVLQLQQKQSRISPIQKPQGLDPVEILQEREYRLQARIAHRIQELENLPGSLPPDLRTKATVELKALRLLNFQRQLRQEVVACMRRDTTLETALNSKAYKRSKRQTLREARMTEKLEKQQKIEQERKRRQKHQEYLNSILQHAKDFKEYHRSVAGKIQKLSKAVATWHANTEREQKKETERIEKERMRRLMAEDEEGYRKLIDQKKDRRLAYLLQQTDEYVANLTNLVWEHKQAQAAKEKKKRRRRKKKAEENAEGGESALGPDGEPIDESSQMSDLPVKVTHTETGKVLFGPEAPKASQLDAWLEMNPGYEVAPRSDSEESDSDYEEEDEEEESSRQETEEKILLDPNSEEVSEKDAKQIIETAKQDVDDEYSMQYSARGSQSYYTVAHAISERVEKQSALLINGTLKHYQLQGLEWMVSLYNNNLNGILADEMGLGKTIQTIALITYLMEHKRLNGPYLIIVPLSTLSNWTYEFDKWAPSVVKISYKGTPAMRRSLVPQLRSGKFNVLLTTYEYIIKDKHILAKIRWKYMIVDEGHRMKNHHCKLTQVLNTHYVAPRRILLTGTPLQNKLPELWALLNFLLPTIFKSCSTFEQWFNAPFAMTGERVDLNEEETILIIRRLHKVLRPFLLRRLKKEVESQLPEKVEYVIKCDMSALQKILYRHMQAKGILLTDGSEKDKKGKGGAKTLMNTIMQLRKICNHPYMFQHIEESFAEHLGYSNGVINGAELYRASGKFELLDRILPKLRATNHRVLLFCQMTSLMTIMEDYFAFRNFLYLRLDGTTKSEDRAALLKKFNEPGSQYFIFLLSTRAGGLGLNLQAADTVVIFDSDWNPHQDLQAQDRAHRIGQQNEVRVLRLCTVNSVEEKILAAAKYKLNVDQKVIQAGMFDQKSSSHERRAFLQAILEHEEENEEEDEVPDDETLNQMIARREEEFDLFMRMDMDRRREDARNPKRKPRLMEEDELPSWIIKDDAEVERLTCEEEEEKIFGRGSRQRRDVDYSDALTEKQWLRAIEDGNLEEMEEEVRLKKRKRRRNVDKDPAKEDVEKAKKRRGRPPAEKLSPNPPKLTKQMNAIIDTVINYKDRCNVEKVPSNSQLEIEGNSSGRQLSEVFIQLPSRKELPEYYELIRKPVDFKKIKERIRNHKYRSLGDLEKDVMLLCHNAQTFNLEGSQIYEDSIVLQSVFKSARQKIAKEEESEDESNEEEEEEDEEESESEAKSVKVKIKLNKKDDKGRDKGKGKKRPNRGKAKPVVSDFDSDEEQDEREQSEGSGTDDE
- EXPERIMENT_DESCRIPTION: SMARCA2 degradation analysis by imaging in RKO cells (DC50 A2)
- Type: cell-based
- SETUP_CONDITIONS: tables 69, 70, 73, 76-78
Item-by-item account of DC50
Hey, just the number and the unit after it is fine.

COMPOUND	ASSAY_ENDPOINT	MEASUREMENT
Cc1ncsc1-c1ccc([C@H](CCCN2CCC(c3ccc4c(c3)n(C3COC3)c3nc(=O)c5c(Br)cccc5n43)CC2)NC(=O)[C@@H]2C[C@@H](O)CN2C(=O)[C@@H](NC(=O)C2(F)CC2)C(C)(C)C)cc1 [Compound 42ad]	DC50	25 nM
Cc1ncsc1-c1ccc([C@H](COCCN2CCC(c3ccc4c(c3)n(C3CCCC3)c3nc(=O)c5c(Br)cccc5n43)CC2)NC(=O)[C@@H]2C[C@@H](O)CN2C(=O)[C@@H](NC(=O)C2(F)CC2)C(C)(C)C)cc1 [Compound 42o]	DC50	5 nM
Cc1ncsc1-c1ccc([C@H](CCCCCN2CCN(c3ccc4c(c3)n(C3CCCC3)c3nc(=O)c5c(Br)cccc5n43)[C@@H](C)C2)NC(=O)[C@@H]2C[C@@H](O)CN2C(=O)[C@@H](NC(=O)C2(F)CC2)C(C)(C)C)cc1 [Compound 42ar]	DC50	0.5 nM

Problem: // query DC50 value for entry Cc1ncsc1-c1ccc([C@H](CCCN2CCC(c3cc4c(cc3OCCOCCO)n3c5cccc(Br)c5c(=O)nc3n4C3CCCC3)CC2)NC(=O)[C@@H]2C[C@@H](O)CN2C(=O)[C@@H](NC(=O)C2(F)CC2)C(C)(C)C)cc1 [Compound 42am]
Result: 0.9 nM
